Values were extracted from the DeepSol protein solubility set.

- protocolText: soluble on expression in E. coli; label from the status in PepcDB or PDB records
propertyMeasured: soluble on expression in E. coli

Here are 5 sequences together with their reported answers.
sequenceData | propertyMeasured | reading
MNERLIFNPKQLTSARIARGLTMKELAEKAELSRQMISNYESGKTIPKADSILKLISVLQFPRSFFSADTFELYSGATFFRSRSAATKKVRDMQKERLKYVQEVYKVLATYVNFPKVCLPELIEKSIYEITEEEIVKKAEELRKIWGLDLISPVPNLIQLAEQNGVIISEANMSNPTLDAVSRWMIGRPFIMLTDNHESAVRRRFNVAHELGHILLHNGVESIHEYSQTELKNIIEYQANLFAAHFLLPSAAFSDSLLSISLEYYIDLKKYWKVSLQSMIQKIYTLALINDDQRLYLNKRIAKNKWKTKEPYDEQLTIEQPEVFQKVYHMILEHQVIPASQLNQAFKLPKEEIEKILGTAIQTEQDKTEIVLELLRSNK | soluble on expression in E. coli | not soluble
MADVEDGEETCALASHSGSSGSKSGGDKMFSLKKWNAVAMWSWDVECDTCAICRVQVMDACLRCQAENKQEDCVVVWGECNHSFHNCCMSLWVKQNNRCPLCQQDWVVQRIGKLEHHHHHH | soluble on expression in E. coli | soluble
MAHHHHHHMCGVIEGLWTRGGRVFHRYVRPSDPRRISAAAAAVHGITWETVQNCSPWPVVARELVAYMALVGADAPVSASAQLEAAQLGGQRAVHLPPLVAHNASFDARFLEHHLRRCGYQIFWHPRYPLTCTRQWAQVAYPHLANNLDALCAFLSIDWAADRAANGHDALTDATLTALLFLQMCRRWMERFGRGE | soluble on expression in E. coli | not soluble
MGSDKIHHHHHHMNGKAVQLKEEADEPGWEVDPDDEWGVAVVETVGRQLKLRREALGMRAADFGTAVGYGEDMVYKIESGKRIPRPEFLDRADELLGAGGLLSAMKEDVKKVRYPKNVREIAKLEAQAVELGVYVGLSLHGLLQTPEHARALFEVWQPAYSPEEAERRMAARMARKAIFERSPAPALSFVQEEATLRRPVGGTMVWRQQLEHLLEVGQLRNVTLQVMPTNSEAHPGLSGRIEVLKFSDGTAVGRSDGAYNGRPISDPKQLRILELRYGTIRAQALPPRESLAFIEQLLGET | soluble on expression in E. coli | not soluble
MNEQAILQSAEAWVKKQLMDEYSGHDWYHIRRVTLMAKAIGEQEKVDVFVVQIAALFHDLIDDKLVDDPETAKQQLIDWMEAAGVPSQKIDHTMDIINTISFKGGHGQSLATREAMVVQDADRLDALGAIGIARTFAYSGNKGQPIYDPELPIRETMTVEEYRHGKSTAINHFYEKLFKLKDLMNTETGKQLAKERHVFMEQFIERFLSEWNGDMLEHHHHHH | soluble on expression in E. coli | soluble

The sequence listed as MTKQQKGFVTGQPTGALNLSDILDSEELGEYHLMSAAIITGNTVDFSGLGAGPDDPFEIASITKIFTGELLRLQIERGEITESTAVGDVLGERVADSLIRDITVEELANHTSGLPRLGNVGLRPFMATFFDKNPYKDLSADRVISISTTSKLNSRGEFHYSNLGFALLGQVLARNAGLTFDQLLDRDLLAPLNLNNTKLMTPESLAQDAPQGFSTPGKQVEAWEMDGFLPAAGLRSTARDMAVFCQYLFTKGPAPFTWQSLESAPEIVWHNGESFGYSSVLFFNTATTTAIFVAADVATSVFPIGHELLMANSTRQESKLEHHHHHH shows soluble on expression in E. coli equal to not soluble
